Data provenance is paper PMC4536308.

Molecular target: AUF1 p42 (UniProt Q14103-2 1-336)
Assay: fluorescence anisotropy
metric name: pKd
Please treat pKd as minus the base-10 logarithm of the molar concentration.

Documented pKd of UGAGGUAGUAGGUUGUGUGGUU (ssRNA) [let-7b (Fl)] : 8.01
